assay: HFrEF study Part 2 (MAD Cohorts A-D): plasma pharmacokinetics; type: in vivo, human; details: human, plasma, oral, 50 mg, MAD Cohort B, 50 mg BID (with food); Mean; read-out: t1/2, λz (converted)
assayEndpoint: half-life (h)
Answers are plain numbers, in h.

Prompt line: Recorded half-life of Cn1cc(S(=O)(=O)[C@@](C)(F)C2CCN(C(=O)Nc3ccon3)CC2)c(C(F)F)n1 , please.
Response line: 25.1

====

experiment: Single ascending oral dose study in healthy volunteers: plasma pharmacokinetics; assay type: in vivo, human; conditions: human, plasma, oral, 50 mg, 48 Hours Postdose; 50 mg; read-out: Plasma concentration, Geometric Mean
assayEndpoint: concentration at 48 h

Prompt line: Could you tell me which concentration at 48 h is on file for Cn1cc(S(=O)(=O)[C@@](C)(F)C2CCN(C(=O)Nc3ccon3)CC2)c(C(F)F)n1 ?
Response line: 49.5 ng/mL

The measured values listed here are drawn from patent US20220265629A1.
